Exercise: for every item that follows, state its recorded Mean relative activity.
tested on: K562 CRISPRi cells; assay: Constant region variant library pooled growth screen, K562; format: cell-based, human; settings: sgRNA constant region variants; activity relative to the original, un-modified constant region cr995
Give the figure by itself; no unit, no explanation.

For the molecule shown here, cr122 (nucleic acid, listed as DNA, chemistry not fully specified) guide: GTTTAAGAGCTAAGCTGGAAACAGCATAGCAACTTTAAATAAGGCTAGTCCGTTATTAACTTGATAAAGTGGCACCGAGTCGGTGCT , give the reported Mean relative activity. −0.003408

Consider next the molecule cr453 (nucleic acid, listed as DNA, chemistry not fully specified) guide: GTTTAAGAGCTAAGCTGGAAACAGCATAGCAAGTTTAACTAAGGCTAGTCCGTTATCAACTTGAAAAAGTGGCACCGAGTCGGTGCT in the same way. 0.09528
